System: RARa homodimer (NR concentration 270 nM)
Assay: PBM binding z-score (relative to random genomic background probes); higher = stronger binding; sequences stand for … in GC…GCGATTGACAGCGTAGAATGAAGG
readoutName: PBM binding z-score

Here is how some sequences turned out for PBM binding z-score.
{"sequenceRecord": "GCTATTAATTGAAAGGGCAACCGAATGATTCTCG", "PBM binding z-score": 2.31}
{"sequenceRecord": "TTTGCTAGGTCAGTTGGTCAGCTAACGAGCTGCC", "PBM binding z-score": -0.935}
{"sequenceRecord": "TCTCGTAGGACACGAAGGTCAGAGCTTTCCAGAG", "PBM binding z-score": -0.101}

For each of the items listed, what is its PBM binding z-score?
1. CAAACTAGGTCAAGCTCAAAGTCGGTTTGTGCCA
2. CCTAGTTGGTCAGGAGGTCGCACACCGGATATGA
3. AGAACGAGGGCAATGAATTGATAGCACGGGTGGC
4. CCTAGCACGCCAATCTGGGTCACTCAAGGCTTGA
5. ACTAGCAGGCCAAGGGTCACTCAAGATTAGTCCG
6. AGAATCAGGTTACCAAAGATCAGGGAAACGCTTG

## Output
1. 0.322
2. 1.17
3. 0.175
4. 0.0845
5. 0.215
6. -0.131

====

Please provide measured PBM binding z-score for the entries that follow.
System: PPARa:RXRa (NR concentration 270 nM, RXRa partner concentration 90 nM)
Assay: PBM binding z-score (relative to random genomic background probes); higher = stronger binding; sequences stand for … in GC…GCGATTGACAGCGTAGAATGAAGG
Numbers only.

{"sequenceRecord": "CGAACGAGAGCATGAGTTGATAGCAAATGCCGAT", "PBM binding z-score": -0.357}

For each of the items listed, what is its PBM binding z-score?
1. CGAACGAGGGCATGAGTTGATACCAAATGCCGAT
2. CCTACTGGGCCAAGGTCATGGATCAGTCAAAGCA

## Output
1.57
4.32

For each of the items listed, what is its PBM binding z-score?
1. CTCGAAAGGTCGTGCTCAGGTGAGTAAACCAAAC
2. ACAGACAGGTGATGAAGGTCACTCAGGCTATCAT
3. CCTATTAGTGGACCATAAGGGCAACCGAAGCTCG
4. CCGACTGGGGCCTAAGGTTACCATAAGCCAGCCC

## Output
[4.92, 2.75, 0.591, 1.26]

For each of the items listed, what is its PBM binding z-score?
1. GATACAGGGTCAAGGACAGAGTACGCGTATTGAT
2. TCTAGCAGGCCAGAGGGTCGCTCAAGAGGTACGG
3. ATCTCTAGGTAAGACTCAGTTTAGTGAAGAACGC

## Output
1: 5.54; 2: 0.269; 3: -0.0694

For each of the items listed, what is its PBM binding z-score?
1. GGAACGAGGGCATTCGATTTGATAGCATGGCGAT
2. TCTAGTTGGTCAAAGGTCACATACTCGAAATGCG
3. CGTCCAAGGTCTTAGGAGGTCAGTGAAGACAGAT
4. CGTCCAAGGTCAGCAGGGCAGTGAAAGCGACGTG
5. AGAACGAGGGCACGCAGAGTTGATAGCAGAGTAG
6. TATGCTAGGTCAACGATGGTCAGCTAATCTGCTA

## Output
1.49
6.24
2.28
4.47
2.54
3.37

====

Tested on: PPARg:RXRa 90nM:30nM, anti-RXR (NR concentration 90 nM, RXRa partner concentration 30 nM)
Experiment: PBM binding z-score (relative to random genomic background probes); higher = stronger binding; sequences stand for … in GC…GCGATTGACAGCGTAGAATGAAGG
Please provide measured PBM binding z-score for the entries that follow.

Here is how some sequences turned out for PBM binding z-score.
{"sequenceRecord": "ATAATGAGGTTATACGTAGATCAGGGAAGAAAGT", "experimentalTarget": "PPARg:RXRa 90nM:30nM, anti-RXR (NR concentration 90 nM, RXRa partner concentration 30 nM)", "observedValue": 1.89}
{"sequenceRecord": "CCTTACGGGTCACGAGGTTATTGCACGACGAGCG", "experimentalTarget": "PPARg:RXRa 90nM:30nM, anti-RXR (NR concentration 90 nM, RXRa partner concentration 30 nM)", "observedValue": 5.41}

For each of the items listed, what is its PBM binding z-score?
1. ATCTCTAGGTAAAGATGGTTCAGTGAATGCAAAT
2. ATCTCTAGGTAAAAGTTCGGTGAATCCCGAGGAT

## Output
1. 0.679
2. 6.61

For each of the items listed, what is its PBM binding z-score?
1. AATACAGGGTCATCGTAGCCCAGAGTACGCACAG
2. GCTGCTACGTCAACTGATGGTCAGCTAAAGCTCG
3. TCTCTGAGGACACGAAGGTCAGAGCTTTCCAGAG
4. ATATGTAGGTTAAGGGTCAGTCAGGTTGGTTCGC
5. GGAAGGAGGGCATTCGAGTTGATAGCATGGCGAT
6. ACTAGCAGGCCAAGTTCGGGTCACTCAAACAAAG

## Output
1: 4.75; 2: -0.829; 3: 2.22; 4: 11.6; 5: 0.639; 6: 0.197

For each of the items listed, what is its PBM binding z-score?
1. TCTAGTTGTTCACGGAGGTCACACACGACGGGTA
2. ATCGAAAGGTAGAAGGTGAGTATACCCACCCGAA
3. GCTAGCAGGCAATTTGGGTCACTCAATGACGGGC
4. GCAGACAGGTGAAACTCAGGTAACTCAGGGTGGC

## Output
1: 3.07; 2: 1.03; 3: 0.409; 4: -0.156

For each of the items listed, what is its PBM binding z-score?
1. GATACAGGGTCAAGGCGAGAGTACGCGTATTGAT
2. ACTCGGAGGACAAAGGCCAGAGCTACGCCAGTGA
3. ATATGTAGGCTACATCCGGGTCATTCAGGCTATG
4. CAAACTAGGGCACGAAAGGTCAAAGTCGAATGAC

## Output
4.05
1.97
1.85
7.03

====

Tested on: THRa homodimer (NR concentration 90 nM)
Test: PBM binding z-score (relative to random genomic background probes); higher = stronger binding; sequences stand for … in GC…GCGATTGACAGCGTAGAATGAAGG
Please provide measured PBM binding z-score for the entries that follow.
Answers are plain numbers.

{"sequenceRecord": "CAAACTAGGTCACCGGAAGGTCAAGGTCCGCATG", "experimentalTarget": "THRa homodimer (NR concentration 90 nM)", "PBM binding z-score": 3.53}

For each of the items listed, what is its PBM binding z-score?
1. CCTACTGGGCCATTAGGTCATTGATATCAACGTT
2. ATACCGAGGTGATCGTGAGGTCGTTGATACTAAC
3. TCAGACAGGTGAAGGTCACTCAGGTACGCAGTCG
4. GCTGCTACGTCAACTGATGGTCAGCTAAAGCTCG
5. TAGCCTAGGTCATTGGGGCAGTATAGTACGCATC
6. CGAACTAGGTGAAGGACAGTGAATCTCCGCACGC

## Output
1: 2.27; 2: 2.44; 3: 1.43; 4: -0.948; 5: 1.28; 6: -0.201

====

Test system: PPARg homodimer (NR concentration 180 nM)
Assay: PBM binding z-score (relative to random genomic background probes); higher = stronger binding; sequences stand for … in GC…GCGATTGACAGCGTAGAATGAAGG
Decide using PBM binding z-score: a value greater than or equal to 1 is Satisfied, a smaller one is Not satisfied.

{"sequenceRecord": "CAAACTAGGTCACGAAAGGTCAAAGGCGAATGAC", "experimentalTarget": "PPARg homodimer (NR concentration 180 nM)", "classification": "Satisfied"}

## Input Assess whether reported PBM binding z-score for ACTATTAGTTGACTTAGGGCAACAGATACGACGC sits at 1 or higher.
## Output Not satisfied

## Input Assess whether reported PBM binding z-score for TGAGTGAGGTTAAAGATCAGGGAACGTGGCGTCG sits at 1 or higher.
## Output Satisfied

## Input Assess whether reported PBM binding z-score for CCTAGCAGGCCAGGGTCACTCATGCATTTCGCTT sits at 1 or higher.
## Output Not satisfied

## Input Assess whether reported PBM binding z-score for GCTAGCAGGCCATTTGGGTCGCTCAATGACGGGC sits at 1 or higher.
## Output Not satisfied

## Input Assess whether reported PBM binding z-score for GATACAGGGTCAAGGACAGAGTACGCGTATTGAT sits at 1 or higher.
## Output Satisfied
